- methodNotes: chemical genetic growth profiling, strain panel (AID 1159580);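 further: tested at 20 µM; growth read once vehicle control cultures reached saturation at 30 °C; 1 = growth at the plate median or of vehicle wells; lower values mean less growth of the strain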
- measurementConditions: S. cerevisiae deletion strains, growth OD, locus YLR113W, strain HOG1, hits give low values
The campaign covered roughly 5,500 compounds. About 2,000 (36%) were called active. Another 18% or so got no clear call; they are omitted. This is one part of the list.
property: normalized growth
Could you keep your reply to the number by itself?

So, C=C1C[C@]23C[C@@]1(O)CC[C@H]2[C@@]12C=C[C@H](O)[C@@](C)(C(=O)O1)[C@H]2[C@@H]3C(=O)O ? Its normalized growth was 0.998

Just so you know, measured normalized growth for Cc1cn[nH]c1 came out at 1.02

// sample CC(C)CCCC(C)[C@H]1CCC2C3C(=O)C=C4C[C@@H](O)CC[C@]4(C)C3CC[C@@]21C (stereo partly drawn) , its normalized growth was 0.975

* * *

- methodNotes: chemical genetic growth profiling, strain panel (AID 1159580);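 further: tested at 20 µM; growth read once vehicle control cultures reached saturation at 30 °C; 1 = growth at the plate median or of vehicle wells; lower values mean less growth of the strain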
- measurementConditions: S. cerevisiae deletion strains, growth OD, locus YMR307W, strain GAS1, hits give low values
About 2,000 (36%) of roughly 5,500 compounds were called active. Another 18% or so got no clear call; they are omitted. The list shows a part of the results.
property: normalized growth
I only need the number, thanks.

Reported normalized growth for OC[C@H]1O[C@@H](O[C@@H]2[C@@H](CO)O[C@](O)(CO)[C@H]2O)[C@H](O)[C@@H](O)[C@H]1O was 1

Entry CCOC(=O)NNc1nncc2ccccc12 — recorded normalized growth = 0.972

compound COc1ccc([C@@H]2Sc3ccccc3N(CCN(C)C)C(=O)[C@@H]2OC(C)=O)cc1 , normalized growth observed: 1

Lab note: measured normalized growth of COc1cc(C(C)=O)cc(OC)c1O was 0.981

Record C[N+]1(C)CCOC(O)(c2ccc(-c3ccc(C4(O)C[N+](C)(C)CCO4)cc3)cc2)C1 (stereo not given) . Reported normalized growth: 0.993

* * *

- methodNotes: chemical genetic growth profiling, strain panel (AID 1159580);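 further: tested at 20 µM; growth read once vehicle control cultures reached saturation at 30 °C; 1 = growth at the plate median or of vehicle wells; lower values mean less growth of the strain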
- measurementConditions: S. cerevisiae deletion strains, growth OD, locus YPL106C, strain sse1
The campaign covered roughly 5,500 compounds. About 2,000 (36%) were called active. Another 18% or so got no clear call; they are omitted. Cut-off read from the data, not from the text of the source: active = normalized growth mostly below about 0.91 (no sharp cut-off); inconclusive = no clear call, values can overlap the other calls; inactive = mostly above about 0.92. The list shows a part of the results.
Mark one answer only. Choices: Y for active, N for inactive

For CCC(C)[C@H]1O[C@]2(C=C[C@@H]1C)C[C@@H]1C[C@@H](C/C=C(\C)[C@@H](OC3C[C@H](OC)C(O[C@H]4C[C@H](OC)[C@@H](O)[C@H](C)O4)[C@H](C)O3)[C@@H](C)/C=C/C=C3\CO[C@@H]4[C@H](O)C(C)=C[C@@H](C(=O)O1)[C@]34O)O2 (some centres not stated) , which call appears in the assay record?
Y

Record request — test call for CC(C)CCCC(C)[C@H]1CCC2C3CC=C4C[C@@H](O)CC[C@]4(C)C3CC[C@@]21C (some centres not stated)
N

What outcome does the record of this test show for CC(=O)c1ccc(O)c(CC=C(C)C)c1 ?
N

Returns: the outcome recorded for CC(=O)Oc1cccc(O)c1 in this assay.
N

Look up the recorded call for CC(C)CCCC(C)C1CCC2C3=CC[C@H]4C[C@@H](O)CC[C@]4(C)C3CC[C@@]21C (some centres not stated) in this test.
N

Tell me the recorded outcome of this test for CC(C)CCCC(C)[C@H]1CCC2C3CC=C4CC(=O)CC[C@]4(C)C3CC[C@@]21C (some centres not stated) .
N

How was NC1=NCCN1CC(=O)O classified in this test?
N

Query: recorded result category for O=C1NC(O)=NC1(c1ccccc1)c1ccccc1 in this test
N

Record lookup: outcome of this test for CC(C)CCCC(C)C1CCC2C3CC(=O)[C@H]4C[C@@H](O)CC[C@]4(C)C3CC[C@]12C (some centres not stated) ?
N

Record lookup: outcome of this test for C/C1=C/CC(C)(C)/C=C/C/C(C)=C/CC1 ?
N

Dear colleague, could you share the recorded outcome for CC(C)c1ccc2c(c1)CCC1[C@](C)(CN)CCC[C@]21C (some centres not stated) when you have a moment?
N

Given CC(=O)Oc1ccc(O)cc1 , state the outcome it received in this test.
N

Which outcome was entered for the compound COc1ccc(C2Sc3ccccc3N(CCN(C)C)C(=O)C2OC(C)=O)cc1 (configuration not stated) in this test?
N

Just curious, what result did CC1=CC(=O)c2ccccc2C1=O get here?
N

What did this assay record as the result for CN(C)CCCN1c2ccccc2Sc2ccc(C(F)(F)F)cc21 ?
N

I'd appreciate the recorded outcome for CN(C)CCCN1c2ccccc2Sc2ccccc21 from this test.
N

Tell me the recorded outcome of this test for C=C1c2c(Cl)ccc(O)c2C(O)=C2C(=O)[C@]3(O)C(O)=C(C(N)=O)C(=O)[C@@H](N(C)C)[C@@H]3[C@@H](O)[C@H]12 .
N

Test call for this compound, please: CC(C)CCCC(C)C1CCC2C3C[C@@H](O)[C@@]4(O)C[C@@H](O)CC[C@]4(C)C3CC[C@]12C (some centres not stated)
N

Answer briefly: the call reported for CC12CCC3C(CC3(C)C)C(C)(CCC1=O)O2 (configuration not stated) in this assay.
N

What call does the record list for CC(C)CCCC(C)[C@H]1CCC2C3C(=O)C=C4C[C@@H](O)CC[C@]4(C)C3CC[C@@]21C (some centres not stated) ?
N

Hi, do you know how CC(C)c1ccc2c(c1)CCC1C(C)(C(N)=O)CCCC21C (configuration not stated) came out in this test?
N

Please share the test call associated with CS(=O)(=O)Nc1ccc([N+](=O)[O-])cc1Oc1ccccc1 .
N
